# Assay target: hTG2 (Homo sapiens, UniProt P21980)
# Test: biochemical
Measurement kind: pKi
Give bare numbers, as −log10 of the molar value.

Please report the recorded pKi for C=CC(=O)NCCCC[C@H](NC(=O)c1cccc2ccccc12)C(=O)N1CCN(C(=O)c2cccc3ccccc23)CC1 [Inhibitor 66] .
5.03

---

# Assay target: hTG2 (Homo sapiens, UniProt P21980)
# Sequence (P21980 1-687): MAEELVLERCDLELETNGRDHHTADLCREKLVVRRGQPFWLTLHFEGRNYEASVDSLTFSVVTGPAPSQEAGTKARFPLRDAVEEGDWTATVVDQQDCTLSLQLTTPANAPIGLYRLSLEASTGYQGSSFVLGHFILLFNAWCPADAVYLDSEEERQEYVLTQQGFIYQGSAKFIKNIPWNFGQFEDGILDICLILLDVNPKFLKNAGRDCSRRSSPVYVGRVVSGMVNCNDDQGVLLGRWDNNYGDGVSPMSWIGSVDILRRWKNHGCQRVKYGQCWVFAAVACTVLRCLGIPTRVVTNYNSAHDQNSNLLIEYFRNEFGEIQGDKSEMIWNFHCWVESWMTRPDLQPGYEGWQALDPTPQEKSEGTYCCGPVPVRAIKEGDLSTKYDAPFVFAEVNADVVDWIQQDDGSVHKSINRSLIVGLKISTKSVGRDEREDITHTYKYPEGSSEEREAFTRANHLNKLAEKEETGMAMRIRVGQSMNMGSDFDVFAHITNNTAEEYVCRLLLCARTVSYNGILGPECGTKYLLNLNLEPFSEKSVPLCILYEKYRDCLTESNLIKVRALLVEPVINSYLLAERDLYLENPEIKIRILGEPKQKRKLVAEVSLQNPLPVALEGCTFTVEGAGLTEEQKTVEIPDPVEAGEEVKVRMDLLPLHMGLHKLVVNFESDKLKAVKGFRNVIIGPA
# Test: biochemical
# Particulars: values determined using a double-reciprocal analysis; read-out: KI (converted)
Measurement kind: Ki (µM)
Give bare numbers, in µM.

Here's what some known entries look like.
C=CC(=O)NCCCC[C@H](NC(=O)c1cccnc1)C(=O)N1CCN(C(=O)c2cccc3ccccc23)CC1 = 25.4
C=CC(=O)NCCCC[C@H](NC(C)=O)C(=O)N1CCN(C(=O)c2cccc3ccccc23)CC1 = 33
C=CC(=O)NCCCC[C@H](NS(=O)(=O)c1ccccc1)C(=O)N1CCN(C(=O)c2cccc3ccccc23)CC1 = 88.8
C=CC(=O)NCCCC[C@H](NC(=O)c1ccncc1)C(=O)N1CCN(C(=O)c2cccc3ccccc23)CC1 = 19.3
C=CC(=O)NCCCC[C@H](NC(=O)c1ccccc1)C(=O)N1CCN(C(=O)c2cccc3ccccc23)CC1 = 12
C=CC(=O)NCCCC[C@H](NC(=O)c1ccccn1)C(=O)N1CCN(C(=O)c2cccc3ccccc23)CC1 = 41.4
C=CC(=O)NCCCC[C@H](NC(=O)c1cccc(F)c1)C(=O)N1CCN(C(=O)c2cccc3ccccc23)CC1 = 9.9

Please report the recorded Ki for C=CC(=O)NCCCC[C@H](NC(=O)c1ccc(F)cc1)C(=O)N1CCN(C(=O)c2cccc3ccccc23)CC1 .
11.6

---

# Assay target: hTG2 (Homo sapiens, UniProt P21980)
# Test: biochemical
# Particulars: fit to saturation kinetics model; 25° C., pH 6.95, 100 μM AL5; read-out: kinact (converted)
Answer each item with its documented kinact.
Give bare numbers, in s⁻¹.

C=CC(=O)NCCCC[C@H](NC(=O)Cc1ccccc1Cl)C(=O)N1CCN(C(=O)c2cccc3ccccc23)CC1 [Inhibitor 76] = 0.0883
C=CC(=O)NCCCC[C@H](NC(=O)c1ccccc1F)C(=O)N1CCN(C(=O)c2cccc3ccccc23)CC1 [Inhibitor 62] = 0.0065
C=CC(=O)NCCCC[C@H](NS(=O)(=O)CC)C(=O)N1CCN(C(=O)c2cccc3ccccc23)CC1 [Inhibitor 90] = 0.0138
C=CC(=O)NCCCC[C@H](NC(=O)CC1CCCCC1)C(=O)N1CCN(C(=O)c2cccc3ccccc23)CC1 [Inhibitor 34] = 0.00433
C=CC(=O)NCCCC[C@H](NC(=O)c1cccc(F)c1)C(=O)N1CCN(C(=O)c2cccc3ccccc23)CC1 [Inhibitor 63] = 0.0107
C=CC(=O)NCCCC[C@H](NC(=O)CCc1ccccc1)C(=O)N1CCN(C(=O)c2cccc3ccccc23)CC1 [Inhibitor 68] = 0.01
C=CC(=O)NCCCC[C@H](NC(=O)c1ccc2ccccc2c1)C(=O)N1CCN(C(=O)c2cccc3ccccc23)CC1 [Inhibitor 65] = 0.00483
C=CC(=O)NCCCC[C@H](NC(=O)Cc1ccccc1C)C(=O)N1CCN(C(=O)c2cccc3ccccc23)CC1 [Inhibitor 74] = 0.035
C=CC(=O)NCCCC[C@H](NC(=O)Cc1ccc(F)cc1F)C(=O)N1CCN(C(=O)c2cccc3ccccc23)CC1 [Inhibitor 80] = 0.0103
C=CC(=O)NCCCC[C@H](NC(=O)C1CCCCC1)C(=O)N1CCN(C(=O)c2cccc3ccccc23)CC1 [Inhibitor 35] = 0.0055

I have 2 compounds here; please give me kinact for each one.
1. C=CC(=O)NCCCC[C@H](NC(=O)c1cn(C)cn1)C(=O)N1CCN(C(=O)c2cccc3ccccc23)CC1 [Inhibitor 22]
2. C=CC(=O)NCCCC[C@H](NC(=O)CC(C)C)C(=O)N1CCN(C(=O)c2cccc3ccccc23)CC1 [Inhibitor 38]

0.00467
0.0107

I have 2 compounds here; please give me kinact for each one.
1. C=CC(=O)NCCCC[C@H](NC(=O)Cc1ccccc1OC)C(=O)N1CCN(C(=O)c2cccc3ccccc23)CC1 [Inhibitor 75]
2. C=CC(=O)NCCCC[C@H](NC(=O)Cc1ccccc1C(F)(F)F)C(=O)N1CCN(C(=O)c2cccc3ccccc23)CC1 [Inhibitor 81]

1: 0.0233; 2: 0.0167

---

# Test: Kinetic solubility
# Format: physicochemical
# Particulars: kinetic from dmso stock
Measurement kind: solubility kinetic (µM)
Answers are plain numbers, in µM.

Please report the recorded solubility kinetic for C=CC(=O)NCCCC[C@H](NC(=O)Cc1ccccc1C)C(=O)N1CCN(C(=O)c2cccc3ccccc23)CC1 [Inhibitor 74] .
39

---

# Tested on: P-gp (MDR1)
# Test: MDCK-MDR1 permeability
# Format: in vitro ADME
# Particulars: dog, MDCK-MDR1
Measurement kind: efflux ratio

Please report the recorded efflux ratio for C=CC(=O)NCCCC[C@H](NC(=O)Cc1ccccc1C)C(=O)N1CCN(C(=O)c2cccc3ccccc23)CC1 [Inhibitor 74] .
> 50

---

# Assay target: hTG2 (Homo sapiens)
# Test: biochemical
# Particulars: fit to saturation kinetics model; 25° C., pH 6.95, 100 μM AL5; read-out: KI (converted)
# Text: The ability of the compounds to inhibit TG2 transamidase activity and the kinetics of TG2 inhibition were investigated using a colorimetric activity assay, as follows: Colorimetric transamidase activity assay. […] Formation of hydrolysis product, p-nitrophenolate (pNP), was monitored at 405 nm in a polystyrene 96-well microplate using a BioTek Synergy 4 plate reader. […]
Measurement kind: Ki (µM)
Answers are plain numbers, in µM.

Here's what some known entries look like.
C=CC(=O)NCCCC[C@H](NC(=O)Cc1ccccc1F)C(=O)N1CCN(C(=O)c2cccc3ccccc23)CC1 [Inhibitor 72] = 1
C=CC(=O)NCCCC[C@H](NC(=O)Cc1ccccc1C)C(=O)N1CCN(C(=O)c2cccc3ccccc23)CC1 [Inhibitor 74] = 6.1
C=CC(=O)NCCCC[C@H](NC(=O)CC)C(=O)N1CCN(C(=O)c2cccc3ccccc23)CC1 [Inhibitor 40] = 5.1
C=CC(=O)NCCCC[C@H](NC(=O)c1cccc2ccccc12)C(=O)N1CCN(C(=O)c2cccc3ccccc23)CC1 [Inhibitor 66] = 20.3

Please report the recorded Ki for C=CC(=O)NCCCC[C@H](NC(=O)C1C2CC3CC(C2)CC1C3)C(=O)N1CCN(C(=O)c2cccc3ccccc23)CC1 (some centres unmarked) [Inhibitor 33] .
15.3

---

Answer each item with its documented Ki.
# Assay target: hTG2 (Homo sapiens, UniProt P21980)
# Test: biochemical
# Particulars: fit to saturation kinetics model; 25° C., pH 6.95, 100 μM AL5; read-out: KI (converted)

I have 6 compounds here; please give me Ki for each one.
1. C=CC(=O)NCCCC[C@H](NC(=O)CC(C)C)C(=O)N1CCN(C(=O)c2cccc3ccccc23)CC1
2. C=CC(=O)NCCCC[C@H](NC(=O)C(C)C)C(=O)N1CCN(C(=O)c2cccc3ccccc23)CC1
3. C=CC(=O)NCCCC[C@H](NC(=O)Cc1ccccc1Cl)C(=O)N1CCN(C(=O)c2cccc3ccccc23)CC1
4. C=CC(=O)NCCCC[C@H](NC(=O)Cc1ccccc1Br)C(=O)N1CCN(C(=O)c2cccc3ccccc23)CC1
5. C=CC(=O)NCCCC[C@H](NC(=O)Cc1ccccc1C(F)(F)F)C(=O)N1CCN(C(=O)c2cccc3ccccc23)CC1
6. C=CC(=O)NCCCC[C@H](NC(=O)c1nccn1C)C(=O)N1CCN(C(=O)c2cccc3ccccc23)CC1

1. 9.7 µM
2. 9.9 µM
3. 18 µM
4. 9.8 µM
5. 10.1 µM
6. 15.7 µM
